# Test system: human melanoma cell A375 (BRAF-V600E mutation)
# test-description: Cancer cell proliferation inhibition assay, A375
# Format: cell-based
# run-parameters: A-375, 72 h incubation, Cell Titer Glo
property-measured: IC50 (nM)
Give just the number in nM; leave the unit off.

A selection of reference data follows.
Cc1ccc2c(Nc3cccc(C#N)c3F)nccc2c1NC(=O)c1cccc2c(N)ncnc12 :: 61.9
Cc1ccc2c(Nc3ccc(Cl)c(CN(C)C)c3)nccc2c1NC(=O)c1cccc2c(N)ncnc12 :: 70.3
Cc1ccc2c(Nc3ccnc(C(F)(F)F)c3)nccc2c1NC(=O)c1cccc2c(N)ncnc12 :: 170

As a next step, examine the compound that follows.
Request: Item `COc1ccc(Nc2nccc3c(NC(=O)c4cccc5c(N)ncnc45)c(C)ccc23)cc1OC` has what recorded IC50?
Result: 104
